Hello, the source for this data is ChEMBL document CHEMBL1135511, in case you need it.

- System Name: Human immunodeficiency virus type 1 integrase (Human immunodeficiency virus 1)
- Sequence (Q7ZJM1 whole entry): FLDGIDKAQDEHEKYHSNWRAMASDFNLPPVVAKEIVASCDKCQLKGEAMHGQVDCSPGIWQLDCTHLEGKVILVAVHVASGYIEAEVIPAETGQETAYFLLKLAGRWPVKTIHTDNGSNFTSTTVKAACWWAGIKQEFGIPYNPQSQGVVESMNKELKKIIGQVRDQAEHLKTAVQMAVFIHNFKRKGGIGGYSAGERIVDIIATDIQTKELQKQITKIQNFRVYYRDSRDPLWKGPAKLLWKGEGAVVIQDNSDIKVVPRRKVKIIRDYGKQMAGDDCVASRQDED
- Protocol: Inhibitory effect on 3'-processing(3'-P) of proximal DNA in an extracellular HIV-1 integrase assay in experiment 2
I'd be grateful if you could share measured IC50 for these entries.

>>> df
                        chemical_structure                               system_name  measurement_label  value_measured
0  O=C(O)C(=O)/C=C(\O)c1cccc(OCc2ccccc2)c1  Human immunodeficiency virus type 1 integrase (Human immunodeficiency virus 1)               IC50          100 µM

Below: the item to evaluate.
Problem: Give a short answer stating reported IC50 for O=C(O)C(=O)/C=C(\O)c1ccc(/C(O)=C/C(=O)C(=O)O)cc1 .
Solution: 7.5 µM

====

Give measured IC50 for each item. Keep answers brief.
- System Name: Human immunodeficiency virus type 1 integrase (Human immunodeficiency virus 1)
- Protocol: Inhibitory effect on strand transfer of proximal DNA into host DNA in an extracellular HIV-1 integrase assay in experiment 1
Numbers only, in µM.

                       chemical_structure                               system_name  measurement_label  unit_string  value_measured
0  O=C(O)C(=O)/C=C(\O)c1ccc(Oc2ccccc2)cc1  Human immunodeficiency virus type 1 integrase (Human immunodeficiency virus 1)               IC50           µM             7.8
1   O=C(CC(=O)c1c[nH]c2ccccc12)c1nnn[nH]1  Human immunodeficiency virus type 1 integrase (Human immunodeficiency virus 1)               IC50           µM             1.9

Problem: Output measured IC50 for this item: O=C(O)C(=O)/C=C(\O)c1cccc(Br)c1
Solution: 2

====

Entries below carry reported pIC50 on UniProtKB Q7ZJM1.
Give bare numbers, as −log10 of the molar value.

In [3]: df
Out[3]:
                         chemical_structure       system_name  value_measured
0  O=C(O)C(=O)/C=C(\O)c1cc(/C(O)=C/C(=O)C(=O)O)c2ccccc2n1  UniProtKB Q7ZJM1            5.19
1  CCOC(=O)C(=O)/C=C(\O)c1c[nH]c2ccc(Cl)cc12  UniProtKB Q7ZJM1            5.16

For each of the compounds below, state pIC50.
1. O=C(CC(=O)c1c[nH]c2ccc(F)cc12)c1nnn[nH]1
2. O=C(O)C(=O)/C=C(\O)c1cc(OCc2ccccc2)cc(OCc2ccccc2)c1
3. O=C(O)C(=O)/C=C(\O)c1c[nH]c2ccccc12
4. O=C(O)C(=O)/C=C(\O)c1cccc(NC(=O)c2ccccc2)c1
5. O=C(O)C(=O)/C=C(\O)c1cccc(OCc2ccccc2)c1
6. O=C(O)C(=O)/C=C(\O)c1c[nH]c2ccc(Cl)cc12
7. O=C(O)C(=O)/C=C(\O)c1cccc(/C(O)=C/C(=O)C(=O)O)c1
8. COc1ccc(Cn2nnnc2C(=O)/C=C(\O)c2c[nH]c3ccc(Cl)cc23)cc1

Solution:
1: 5.74; 2: 6.32; 3: 5.84; 4: 4.46; 5: 6.46; 6: 6.28; 7: 5.74; 8: 4.47

For every item below, please supply its pIC50.
1. O=C(O)C(=O)/C=C(\O)c1ccc(/C(O)=C/C(=O)C(=O)O)cc1
2. O=C(O)c1ccc2[nH]cc(C(=O)CC(=O)c3nnn[nH]3)c2c1

Solution:
5.89
4.40
